Reference for the values: patent US10076519B2

Test system: rabbit skeletal myofibrils (fast skeletal myofibrils)
Experiment: Activation of fast skeletal myofibrils (PUMA assay, PK/LDH-coupled ATPase at pCa25)
Format: biochemical
Settings: median AC1.4 reported as class; procedure of Example 39
endpoint: Mean AC1.4

// below: answered molecules
compoundSmiles | testedOn | Mean AC1.4
CNC(=O)c1cc(-c2ccc(NC[C@]3(c4ncccc4F)C[C@H](F)C3)nn2)ccc1O | rabbit skeletal myofibrils (fast skeletal myofibrils) | B (B=1-10 uM)
CC(C)(C(N)=O)c1cnc(-c2ccc(NCC3(c4ncccc4F)CCC3)nn2)s1 | rabbit skeletal myofibrils (fast skeletal myofibrils) | D (D=>20 uM)
CC(=O)NCc1nc(-c2ccc(NCC3(c4ncccc4F)CCC3)nn2)cs1 | rabbit skeletal myofibrils (fast skeletal myofibrils) | D (D=>20 uM)
Nc1ncc(-c2ccc(NC[C@]3(c4ncccc4F)C[C@H](F)C3)nn2)cn1 | rabbit skeletal myofibrils (fast skeletal myofibrils) | B (B=1-10 uM)

Mean AC1.4 reported for this molecule O=C(NCCF)c1ccc(F)c(-c2ccc(NC[C@]3(c4ncccc4F)C[C@H](F)C3)nn2)c1 : B (B=1-10 uM)

The molecule CC(=O)N1CC(NC(=O)c2cccc(-c3ccc(NC[C@]4(c5ncccc5F)C[C@H](F)C4)nn3)c2)C1 showed Mean AC1.4 equal to B (B=1-10 uM)

Reported Mean AC1.4 of CNC(=O)c1cccc(-c2ccc(NC[C@]3(c4ncccc4F)C[C@H](F)C3)nn2)c1 : A (A=<1 uM)

Reported Mean AC1.4 for Fc1cccnc1C1(CNc2ccc(-c3nc4c(s3)CNCC4)nn2)CCC1 was D (D=>20 uM)

Lab note: measured Mean AC1.4 of O=C(N[C@H]1CCNC1=O)c1ccc(NCC2(c3ncccc3F)CCC2)nn1 was D (D=>20 uM)

In plain terms, N#Cc1cc(Br)cc(-c2ccc(NCC3(c4ncccc4F)CCC3)nn2)c1O has a documented Mean AC1.4 of A (A=<1 uM)

* * *

System: rabbit skeletal myofibrils (fast skeletal myofibrils)
Assay: Activation of fast skeletal myofibrils (PUMA assay, PK/LDH-coupled ATPase at pCa25)
Type: biochemical
Conditions: median AC1.4 class, procedure of Example 39
endpoint: Mean AC1.4

Check out these entries, answers already filled in.
compound | testedOn | Mean AC1.4
COc1cc(-c2ccc(NCC3(c4ncccc4F)CCC3)nn2)ccc1C(N)=O | rabbit skeletal myofibrils (fast skeletal myofibrils) | B (B=1-10 uM)
Fc1cccnc1C1(CNc2ccc(-c3ncccn3)nn2)CCC1 | rabbit skeletal myofibrils (fast skeletal myofibrils) | B (B=1-10 uM)
NS(=O)(=O)Nc1ccc(F)c(-c2ccc(NCC3(c4ncccc4F)CCC3)nn2)c1 | rabbit skeletal myofibrils (fast skeletal myofibrils) | A (A=<1 uM)
O=C(c1cnc(-c2ccc(NCC3(c4ncccc4F)CCC3)nn2)s1)N1CCOCC1 | rabbit skeletal myofibrils (fast skeletal myofibrils) | C (C=10-20 uM)

Short answer on rabbit skeletal myofibrils (fast skeletal myofibrils) for CC(=O)Nc1ncc(-c2ccc(NCC3(c4ncccc4F)CCC3)nn2)cn1 , Mean AC1.4: C (C=10-20 uM)

Note to self: Mean AC1.4 of NC(=O)c1cccc(-c2ccc(NC3(c4ccc(Cl)cc4)CCC3)nn2)c1 with rabbit skeletal myofibrils (fast skeletal myofibrils) was B (B=1-10 uM)

* * *

Tested on: rabbit skeletal myofibrils (fast skeletal myofibrils)
Experiment: Activation of fast skeletal myofibrils (PUMA assay, PK/LDH-coupled ATPase at pCa25)
Type: biochemical
Conditions: median AC1.4 reported as class; procedure of Example 39
endpoint: Mean AC1.4

molecule | reportedValue
Cc1cc(NCC2(c3ncccc3F)CCC2)nnc1-c1ncc(CO)s1 | B (B=1-10 uM)
NC(=O)c1cc(N)cc(-c2ccc(NC[C@]3(c4ncccc4F)C[C@H](F)C3)nn2)c1 | B (B=1-10 uM)
CNC(=O)c1cc(C)cc(-c2ccc(NC[C@]3(c4ncccc4F)C[C@H](F)C3)nn2)c1 | B (B=1-10 uM)
CC(C)(O)CNC(=O)c1cccc(-c2ccc(NC[C@]3(c4ncccc4F)C[C@H](F)C3)nn2)c1 | B (B=1-10 uM)

Field Mean AC1.4 (entry O=C(N[C@@H]1CS(=O)(=O)C[C@H]1O)c1cccc(-c2ccc(NC[C@]3(c4ncccc4F)C[C@H](F)C3)nn2)c1 ) reads B (B=1-10 uM)

Item: COC(=O)NC1CCc2sc(-c3ccc(NCC4(c5ncccc5F)CCC4)nn3)nc21 (stereo not shown) | Mean AC1.4: D (D=>20 uM)
